molecular target: Sigma non-opioid intracellular receptor 1 (Homo sapiens, UniProt Q99720); assay: Displacement of [3H]pentazocine from sigma1 receptor
Sequence (Q99720 whole entry): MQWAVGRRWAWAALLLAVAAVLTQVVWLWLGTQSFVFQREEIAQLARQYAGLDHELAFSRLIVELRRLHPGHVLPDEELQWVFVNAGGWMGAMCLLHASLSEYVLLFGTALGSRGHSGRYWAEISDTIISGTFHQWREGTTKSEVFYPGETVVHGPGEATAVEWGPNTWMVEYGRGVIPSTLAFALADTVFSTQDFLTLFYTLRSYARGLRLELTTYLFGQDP
Measured Metric: IC50

Enquiry: Dear colleague, I am looking for the recorded IC50 of the following compound: `COc1cc(NC(=O)c2ccc(-c3ccc(Cl)cc3)o2)cc(OC)c1`
Return: > 10 µM

----------
assay: Displacement of [125I]TNFalpha from TNFalpha receptor
Measured Metric: IC50

Enquiry: What value of IC50 has been reported for the following compound? `COc1cc(NC(=O)c2ccc(-c3ccc(Cl)cc3)o2)cc(OC)c1`
Return: > 10 µM

----------
target: D(1B) dopamine receptor (Homo sapiens, UniProt P21918)
Sequence (P21918 whole entry): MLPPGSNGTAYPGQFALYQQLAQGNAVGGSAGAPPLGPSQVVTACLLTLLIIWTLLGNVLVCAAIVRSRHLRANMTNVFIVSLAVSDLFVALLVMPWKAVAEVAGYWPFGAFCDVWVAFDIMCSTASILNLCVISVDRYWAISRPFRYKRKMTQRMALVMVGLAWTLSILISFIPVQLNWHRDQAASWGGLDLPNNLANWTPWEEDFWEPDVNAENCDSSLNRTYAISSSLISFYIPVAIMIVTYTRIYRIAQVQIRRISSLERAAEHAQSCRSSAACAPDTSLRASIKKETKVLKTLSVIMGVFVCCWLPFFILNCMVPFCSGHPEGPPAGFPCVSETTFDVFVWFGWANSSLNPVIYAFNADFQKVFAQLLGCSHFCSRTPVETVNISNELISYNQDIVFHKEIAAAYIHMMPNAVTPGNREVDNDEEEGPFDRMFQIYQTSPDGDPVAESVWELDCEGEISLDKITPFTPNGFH
Measured Metric: IC50

Enquiry: # get_value(readout='IC50', item= `COc1cc(NC(=O)c2ccc(-c3ccc(Cl)cc3)o2)cc(OC)c1` )
Return: > 10 µM

Every entry's value here was drawn from ChEMBL document CHEMBL1142222.
